The origin of these recorded values is patent US6600069B2.

target_or_system: β-kinase domain of the human insulin receptor (CKD) (Homo sapiens)
Construct: The complete β-kinase domain of the human insulin receptor (CKD); made in house
test_details: 32P-cytoplasmic kinase domain (CKD) autophosphorylation assay
Format: biochemical
conditions_used: 32P incorporated into CKD band, 10 minutes at room temperature, 50 μM ATP; test concentration not given
assay_metric: CKD phosphorylation (percentage of the vehicle level) (%)

COC(=O)c1cc(NC(=O)c2cc(C(=O)Nc3cc(C(=O)OC)cc(C(=O)OC)c3)cc(C(=O)Nc3cc(C(=O)OC)cc(C(=O)OC)c3)c2)cc(C(=O)OC)c1	83.7
O=C(O)c1cc(NC(=O)c2cc(C(=O)Nc3cc(C(=O)O)cc(C(=O)O)c3)cc(C(=O)Nc3cc(C(=O)O)cc(C(=O)O)c3)c2)cc(C(=O)O)c1	97.8
O=C(Nc1cccc2cccc(S(=O)(=O)O)c12)c1cc(C(=O)Nc2cccc3cccc(S(=O)(=O)O)c23)cc(C(=O)Nc2cccc3cccc(S(=O)(=O)O)c23)c1	156.0

1 = O=C(Nc1ccc2ccc(S(=O)(=O)O)cc2c1)c1cc(C(=O)Nc2ccc3ccc(S(=O)(=O)O)cc3c2)cc(C(=O)Nc2ccc3ccc(S(=O)(=O)O)cc3c2)c1
2 = COC(=O)c1ccc(NC(=O)c2cc(C(=O)Nc3ccc(C(=O)OC)cc3)cc(C(=O)Nc3ccc(C(=O)OC)cc3)c2)cc1
In: Task for the reader: decide whether 1 or 2 has the larger CKD phosphorylation (percentage of the vehicle level). Answer by quoting the chosen item's label.
Out: 1

====

target_or_system: β-kinase domain of the human insulin receptor (CKD) (Homo sapiens, UniProt P06213)
Construct: The complete β-kinase domain of the human insulin receptor (CKD); made in house
Sequence (P06213 980-1382 limits assumed): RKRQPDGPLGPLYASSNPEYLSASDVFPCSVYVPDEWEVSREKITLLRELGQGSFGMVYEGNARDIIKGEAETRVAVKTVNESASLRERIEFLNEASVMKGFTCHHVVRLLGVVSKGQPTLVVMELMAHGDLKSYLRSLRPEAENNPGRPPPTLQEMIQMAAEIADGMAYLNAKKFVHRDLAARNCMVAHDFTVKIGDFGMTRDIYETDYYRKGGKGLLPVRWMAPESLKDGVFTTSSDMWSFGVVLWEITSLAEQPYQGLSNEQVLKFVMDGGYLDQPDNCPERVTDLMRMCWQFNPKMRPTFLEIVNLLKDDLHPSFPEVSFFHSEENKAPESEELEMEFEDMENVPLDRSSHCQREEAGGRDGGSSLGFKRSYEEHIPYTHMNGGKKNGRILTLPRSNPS
test_details: 32P-cytoplasmic kinase domain (CKD) autophosphorylation assay
Format: biochemical
conditions_used: 32P incorporated into CKD band, 10 minutes at room temperature, 50 μM ATP; test concentration not given
assay_metric: CKD phosphorylation (percentage of the vehicle level) (%)

Worked set:
O=C(Nc1ccccc1C(=O)O)c1cc(C(=O)Nc2ccccc2C(=O)O)cc(C(=O)Nc2ccccc2C(=O)O)c1	105.3
O=C(Nc1ccc(S(=O)(=O)O)cc1)c1cc(C(=O)Nc2ccc(S(=O)(=O)O)cc2)cc(C(=O)Nc2ccc(S(=O)(=O)O)cc2)c1	98.9
O=C(Nc1cccc2ccc(S(=O)(=O)[O-])cc12)c1cc(C(=O)Nc2cccc3ccc(S(=O)(=O)[O-])cc23)cc(C(=O)Nc2cccc3ccc(S(=O)(=O)[O-])cc23)c1.[Na+].[Na+].[Na+]	134.9

a = O=C(Nc1cccc2cc(S(=O)(=O)O)ccc12)c1cc(C(=O)Nc2cccc3cc(S(=O)(=O)O)ccc23)cc(C(=O)Nc2cccc3cc(S(=O)(=O)O)ccc23)c1
b = O=C(O)c1ccc(CNC(=O)c2cc(C(=O)NCc3ccc(C(=O)O)cc3)cc(C(=O)NCc3ccc(C(=O)O)cc3)c2)cc1
In: Task for the reader: decide whether a or b has the larger CKD phosphorylation (percentage of the vehicle level). Answer by quoting the chosen item's label.
Out: a
(a: 136.8%, b: 90.4%)

====

target_or_system: β-kinase domain of the human insulin receptor (CKD) (Homo sapiens, UniProt P06213)
Construct: The complete β-kinase domain of the human insulin receptor (CKD); made in house
test_details: 32P-cytoplasmic kinase domain (CKD) autophosphorylation assay
Type: biochemical
conditions_used: 32P incorporated into CKD band, 10 minutes at room temperature, 50 μM ATP; test concentration not given
assay_metric: CKD phosphorylation (percentage of the vehicle level) (%)

Worked set:
COC(=O)c1cccc(NC(=O)c2cc(C(=O)Nc3cccc(C(=O)OC)c3)cc(C(=O)Nc3cccc(C(=O)OC)c3)c2)c1	94.54
O=C(Nc1cccc2c(S(=O)(=O)O)cccc12)c1cc(C(=O)Nc2cccc3c(S(=O)(=O)O)cccc23)cc(C(=O)Nc2cccc3c(S(=O)(=O)O)cccc23)c1	122.7

1 = COC(=O)c1ccccc1NC(=O)c1cc(C(=O)Nc2ccccc2C(=O)OC)cc(C(=O)Nc2ccccc2C(=O)OC)c1
2 = O=C(Nc1ccc2cc(S(=O)(=O)O)ccc2c1)c1cc(C(=O)Nc2ccc3cc(S(=O)(=O)O)ccc3c2)cc(C(=O)Nc2ccc3cc(S(=O)(=O)O)ccc3c2)c1
In: Looking at recorded values for CKD phosphorylation (percentage of the vehicle level), does 1 or 2 come in lower? Answer by quoting the chosen item's label.
Out: 1

====

target_or_system: β-kinase domain of the human insulin receptor (CKD) (Homo sapiens)
Construct: The complete β-kinase domain of the human insulin receptor (CKD); made in house
test_details: 32P-cytoplasmic kinase domain (CKD) autophosphorylation assay
Format: biochemical
conditions_used: 32P incorporated into CKD band, 10 minutes at room temperature, 50 μM ATP; test concentration not given
assay_metric: CKD phosphorylation (percentage of the vehicle level) (%)

O=C(Nc1ccc2c(S(=O)(=O)O)cccc2c1)c1cc(C(=O)Nc2ccc3c(S(=O)(=O)O)cccc3c2)cc(C(=O)Nc2ccc3c(S(=O)(=O)O)cccc3c2)c1	136.6
O=C(Nc1ccc2ccccc2c1S(=O)(=O)O)c1cc(C(=O)Nc2ccc3ccccc3c2S(=O)(=O)O)cc(C(=O)Nc2ccc3ccccc3c2S(=O)(=O)O)c1	98.8
O=C(Nc1ccccc1S(=O)(=O)O)c1cc(C(=O)Nc2ccccc2S(=O)(=O)O)cc(C(=O)Nc2ccccc2S(=O)(=O)O)c1	113.2
O=C(Nc1cccc(C(=O)O)c1C(=O)O)c1cc(C(=O)Nc2cccc(C(=O)O)c2C(=O)O)cc(C(=O)Nc2cccc(C(=O)O)c2C(=O)O)c1	118.1
O=C(O)c1ccc(NC(=O)c2cc(C(=O)Nc3ccc(C(=O)O)cc3)cc(C(=O)Nc3ccc(C(=O)O)cc3)c2)cc1	103.7
O=C(Nc1ccc(S(=O)(=O)O)c2ccccc12)c1cc(C(=O)Nc2ccc(S(=O)(=O)O)c3ccccc23)cc(C(=O)Nc2ccc(S(=O)(=O)O)c3ccccc23)c1	114.1
